The origin of these recorded values is PubChem BioAssay AID2060899.

# Test system: 565726-208-R1-J5-PDC complex spheroids, growth inhibition
# EXPERIMENT: Anticancer human tumor 565726-208-R1-J5-PDC patient-derived pancreatic adenocarcinoma cell line growth inhibition [RAS]
# CONDITIONS_USED: second compound 0.003 µM; first compound 0.01 µM; stronger effect = lower value
PROPERTY_LABEL: viability, T/C (%)
Hi! Could you send only the number? It should be in %, unit omitted.

The following compounds have reported results that may help.
| COMPOUND | viability, T/C [%] |
| --- | --- |
| C=CC(=O)N1CCN(c2nc(OCC3CCCN3C)nc3c(F)c(-c4nc(N)cc(C)c4C(F)(F)F)c(Cl)cc23)C(C)C1 (stereo not drawn) + CCn1c(-c2cccnc2C(C)OC)c2c3cc(ccc31)N1CCOC(CC(NC(=O)C(C(C)C)N(C)C(=O)C3(F)CCN(C(=O)C#CC(C)(C)N(C)C)CC3)C(=O)N3CCCC(N3)C(=O)OCC(C)(C)C2)C1 | 109 |
| Nc1ccn(C2OC(CO)C(O)C2(F)F)c(=O)n1 (stereo not drawn) + CCn1c(-c2cccnc2C(C)OC)c2c3cc(ccc31)N1CCOC(CC(NC(=O)C(C(C)C)N(C)C(=O)C3(F)CCN(C(=O)C#CC(C)(C)N(C)C)CC3)C(=O)N3CCCC(N3)C(=O)OCC(C)(C)C2)C1 | 88.6 |
| O=C(c1ccc(F)c(F)c1Nc1ccc(I)cc1F)N1CC(O)([C@@H]2CCCCN2)C1 + CCn1c(-c2cc(N3CCN(C)CC3)cnc2C(C)OC)c2c3cc(ccc31)-c1csc(n1)CC(NC(=O)C1CC1C)C(=O)N1CCCC(N1)C(=O)OCC(C)(C)C2 | 49.6 |
| C=CC(=O)N1CCN(c2nc(OCC3CCCN3C)nc3c(F)c(-c4nc(N)cc(C)c4C(F)(F)F)c(Cl)cc23)C(C)C1 (stereo not drawn) + CCn1c(-c2cc(N3CCN(C)CC3)cnc2C(C)OC)c2c3cc(ccc31)-c1csc(n1)CC(NC(=O)C1CC1C)C(=O)N1CCCC(N1)C(=O)OCC(C)(C)C2 | 43.8 |
| Nc1ccn(C2OC(CO)C(O)C2(F)F)c(=O)n1 (stereo not drawn) + CCn1c(-c2cc(N3CCN(C)CC3)cnc2C(C)OC)c2c3cc(ccc31)-c1csc(n1)CC(NC(=O)C1CC1C)C(=O)N1CCCC(N1)C(=O)OCC(C)(C)C2 | 46.3 |

State recorded viability, T/C with 565726-208-R1-J5-PDC complex spheroids, growth inhibition, entry O=C(c1ccc(F)c(F)c1Nc1ccc(I)cc1F)N1CC(O)([C@@H]2CCCCN2)C1 + CCn1c(-c2cccnc2C(C)OC)c2c3cc(ccc31)N1CCOC(CC(NC(=O)C(C(C)C)N(C)C(=O)C3(F)CCN(C(=O)C#CC(C)(C)N(C)C)CC3)C(=O)N3CCCC(N3)C(=O)OCC(C)(C)C2)C1 , no comment.
80.4

State recorded viability, T/C with 565726-208-R1-J5-PDC complex spheroids, growth inhibition, entry CC(C)n1nc(-c2ccc3oc(N)nc3c2)c2c(N)ncnc21 + CCn1c(-c2cccnc2C(C)OC)c2c3cc(ccc31)N1CCOC(CC(NC(=O)C(C(C)C)N(C)C(=O)C3(F)CCN(C(=O)C#CC(C)(C)N(C)C)CC3)C(=O)N3CCCC(N3)C(=O)OCC(C)(C)C2)C1 , no comment.
67.1

State recorded viability, T/C with 565726-208-R1-J5-PDC complex spheroids, growth inhibition, entry CCN1CCN(Cc2ccc(Nc3ncc(F)c(-c4cc(F)c5nc(C)n(C(C)C)c5c4)n3)nc2)CC1 + CCn1c(-c2cc(N3CCN(C)CC3)cnc2C(C)OC)c2c3cc(ccc31)-c1csc(n1)CC(NC(=O)C1CC1C)C(=O)N1CCCC(N1)C(=O)OCC(C)(C)C2 , no comment.
41.4

* * *

# System: 565726-208-R1-J5-PDC complex spheroids, growth inhibition
# EXPERIMENT: Anticancer human tumor 565726-208-R1-J5-PDC cell line growth inhibition [RAS];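 note: spheroids exposed to compounds for seven days before readout; 100% = DMSO vehicle control viability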
# CONDITIONS_USED: second compound 0.03 µM; first compound 1 µM; stronger effect = lower value
PROPERTY_LABEL: viability, T/C (%)
Hi! Could you send only the number? It should be in %, unit omitted.

| COMPOUND | TARGET_DESC | UNIT_SYMBOL | viability, T/C |
| --- | --- | --- | --- |
| C=CC(=O)Nc1cc(Nc2nccc(-c3cn(C)c4ccccc34)n2)c(OC)cc1N(C)CCN(C)C + CCn1c(-c2cccnc2C(C)OC)c2c3cc(ccc31)N1CCOC(CC(NC(=O)C(C(C)C)N(C)C(=O)C3(F)CCN(C(=O)C#CC(C)(C)N(C)C)CC3)C(=O)N3CCCC(N3)C(=O)OCC(C)(C)C2)C1 | 565726-208-R1-J5-PDC complex spheroids, growth inhibition | % | 62.2 |
| C[C@@H](NC(=O)c1ncnc(N)c1Cl)c1ncc(C(=O)Nc2cc(C(F)(F)F)c(Cl)cn2)s1 + CCn1c(-c2cccnc2C(C)OC)c2c3cc(ccc31)N1CCOC(CC(NC(=O)C(C(C)C)N(C)C(=O)C3(F)CCN(C(=O)C#CC(C)(C)N(C)C)CC3)C(=O)N3CCCC(N3)C(=O)OCC(C)(C)C2)C1 | 565726-208-R1-J5-PDC complex spheroids, growth inhibition | % | 112 |

State, in one line, measured viability, T/C of CCC(CC)c1cc(NC2CCC(N)C2)n2nccc2n1 (centres undefined) + CCn1c(-c2cc(N3CCN(C)CC3)cnc2C(C)OC)c2c3cc(ccc31)-c1csc(n1)CC(NC(=O)C1CC1C)C(=O)N1CCCC(N1)C(=O)OCC(C)(C)C2
20.2

State, in one line, measured viability, T/C of Nc1ccn(C2OC(CO)C(O)C2(F)F)c(=O)n1 (centres undefined) + CCn1c(-c2cccnc2C(C)OC)c2c3cc(ccc31)N1CCOC(CC(NC(=O)C(C(C)C)N(C)C(=O)C3(F)CCN(C(=O)C#CC(C)(C)N(C)C)CC3)C(=O)N3CCCC(N3)C(=O)OCC(C)(C)C2)C1
22.8

* * *

# System: 565726-208-R1-J5-PDC complex spheroids, growth inhibition
# EXPERIMENT: Anticancer human tumor 565726-208-R1-J5-PDC cell line growth inhibition [RAS];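 note: spheroids exposed to compounds for seven days before readout; 100% = DMSO vehicle control viability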
# CONDITIONS_USED: second compound 0.1 µM; first compound 0.316 µM; stronger effect = lower value
Rule: measured viability, T/C below 70% gets class 1; anything equal to or greater than 70% gets class 0.

Some solved cases for reference:
| COMPOUND | CLASS_ASSIGNMENT |
| --- | --- |
| C=CC(=O)Nc1cc(Nc2nccc(-c3cn(C)c4ccccc34)n2)c(OC)cc1N(C)CCN(C)C + C#Cc1c(F)ccc2cc(O)cc(-c3ncc4c(N5CC6CCC(C5)N6)nc(OCC56CCCN5CC(F)C6)nc4c3F)c12 | class 0 |
| C[C@@H](NC(=O)c1ncnc(N)c1Cl)c1ncc(C(=O)Nc2cc(C(F)(F)F)c(Cl)cn2)s1 + C=CC(=O)N1CCN(c2nc(OCC3CCCN3C)nc3c(F)c(-c4nc(N)cc(C)c4C(F)(F)F)c(Cl)cc23)C(C)C1 | class 0 |
| CC(=O)OC12COC1CC(O)C1(C)C(=O)C(O)C3=C(C)C(OC(=O)C(O)C(NC(=O)OC(C)(C)C)c4ccccc4)CC(O)(C(OC(=O)c4ccccc4)C21)C3(C)C (stereo unspecified) + C=CC(=O)N1CCN(c2nc(OCC3CCCN3C)nc3c(F)c(-c4nc(N)cc(C)c4C(F)(F)F)c(Cl)cc23)C(C)C1 | class 1 |
| NC1c2ccccc2OC12CCN(c1cnc3c(N4CCCc5ncccc54)n[nH]c3n1)CC2 (stereo unspecified) + C=CC(=O)N1CCN(c2nc(OCC3CCCN3C)nc3c(F)c(-c4nc(N)cc(C)c4C(F)(F)F)c(Cl)cc23)C(C)C1 | class 0 |

Find out if reported viability, T/C for CC(Nc1ccc2c(c1)OCCn1cc(N3C(=O)OCC3C(F)F)nc1-2)C(N)=O (stereo unspecified) + C#Cc1c(F)ccc2cc(O)cc(-c3ncc4c(N5CC6CCC(C5)N6)nc(OCC56CCCN5CC(F)C6)nc4c3F)c12 is less than 70%
class 0

* * *

# maps each entry to its viability, T/C
# Tested on: 565726-208-R1-J5-PDC complex spheroids, growth inhibition
# EXPERIMENT: Anticancer human tumor 565726-208-R1-J5-PDC cell line growth inhibition [RAS];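 note: spheroids exposed to compounds for seven days before readout; 100% = DMSO vehicle control viability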
# CONDITIONS_USED: second compound 0.000949 µM; first compound 0.316 µM; stronger effect = lower value
Hi! Could you send only the number? It should be in %, unit omitted.

| COMPOUND | viability, T/C / % |
| --- | --- |
| CCC(CC)c1cc(NC2CCC(N)C2)n2nccc2n1 (configuration not stated) + CCn1c(-c2cc(N3CCN(C)CC3)cnc2C(C)OC)c2c3cc(ccc31)-c1csc(n1)CC(NC(=O)C1CC1C)C(=O)N1CCCC(N1)C(=O)OCC(C)(C)C2 | 65.7 |

Let us examine a further case.
State recorded viability, T/C with 565726-208-R1-J5-PDC complex spheroids, growth inhibition, entry CC(=O)OC12COC1CC(O)C1(C)C(=O)C(O)C3=C(C)C(OC(=O)C(O)C(NC(=O)OC(C)(C)C)c4ccccc4)CC(O)(C(OC(=O)c4ccccc4)C21)C3(C)C (configuration not stated) + CCn1c(-c2cc(N3CCN(C)CC3)cnc2C(C)OC)c2c3cc(ccc31)-c1csc(n1)CC(NC(=O)C1CC1C)C(=O)N1CCCC(N1)C(=O)OCC(C)(C)C2 , no comment.
19.2
